Molecular target: T1, soluble mouse GPNMB (recombinant extracellular domain) (mouse, UniProt Q99P91 23-502)
T1 construct: also called moGPNMB; not shown: C-terminal polyhistidine or Avi-His tag
T1 sequence: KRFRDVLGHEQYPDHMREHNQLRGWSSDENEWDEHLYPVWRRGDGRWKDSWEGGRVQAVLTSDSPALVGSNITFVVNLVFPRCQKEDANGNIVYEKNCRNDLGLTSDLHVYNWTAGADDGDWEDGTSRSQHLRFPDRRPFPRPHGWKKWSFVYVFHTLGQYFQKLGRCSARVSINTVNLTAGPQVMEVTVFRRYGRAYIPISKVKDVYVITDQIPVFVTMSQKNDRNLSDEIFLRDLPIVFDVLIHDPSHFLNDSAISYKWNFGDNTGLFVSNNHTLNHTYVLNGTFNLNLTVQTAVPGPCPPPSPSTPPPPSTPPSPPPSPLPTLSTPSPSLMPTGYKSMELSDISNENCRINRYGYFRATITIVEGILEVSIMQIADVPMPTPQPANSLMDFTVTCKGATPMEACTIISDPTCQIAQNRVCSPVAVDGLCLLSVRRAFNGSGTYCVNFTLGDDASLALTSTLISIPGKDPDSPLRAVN
Test: SPR Biacore, IgG captured
MEASURED_PROPERTY: pKd
Remember, pKd is on a log scale: it is -log10 of the molar concentration.

-- ask Please look up its pKd: anti-GPNMB antibody GPN-83 (antibody, V domains shown) VH: QVQLQESGPGLVKPSETLSLTCTVSGISITTGNYRWSWIRQPPGKGLEWIGYIDYSGTITYNPSLKSRVTITRDTSKNQFSLELSSVTAADTAVYYCARDLTHWYFDVWGQGTLVTVSS VL: DIVMTQSPDSLAVSLGERATINCKSSRSVDYYGIGFVNWYQQKPGQPPKLLIYATSIQGSGVPDRFSGSGSGTDFTLTISSLQAEDVAVYYCQQQKEVPPTFGGGTKVEIK
-- reply 8.82

-- ask Please look up its pKd: anti-GPNMB antibody GPN-84 (antibody, V domains shown) VH: QVQLQESGPGLVKPSETLSLTCTVSGISITTGNYRWSWIRQPPGKGLEWIGYIDYSGTITYNPSLKSRVTITRDTSKNQFSLELSSVTAADTAVYYCARDLTHWYYDVWGQGTLVTVSS VL: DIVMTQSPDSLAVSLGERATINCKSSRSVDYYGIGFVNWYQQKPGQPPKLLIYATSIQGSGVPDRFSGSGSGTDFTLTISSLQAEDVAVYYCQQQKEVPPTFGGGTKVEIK
-- reply 8.68

-- ask Please look up its pKd: anti-GPNMB antibody GPN-90 (antibody, V domains shown) VH: QVQLQESGPGLVKPSETLSLTCTVSGISITTGNYRWSWIRQPPGKGLEWIGYIDYSGTITYNPSLKQRVTITRDTSKNQFSLELSSVTAADTAVYYCARDLTHWYFDVWGQGTLVTVSS VL: DIVMTQSPDSLAVSLGERATINCKSSRSVDYYGIGFLNWYQQKPGQPPKLLIYATSHQGSGVPDRFSGSGSGTDFTLTISSLQAEDVAVYYCQQQKEVPPTFGGGTKVEIK
-- reply 9.15

-- ask Please look up its pKd: anti-GPNMB antibody GPN-87 (antibody, V domains shown) VH: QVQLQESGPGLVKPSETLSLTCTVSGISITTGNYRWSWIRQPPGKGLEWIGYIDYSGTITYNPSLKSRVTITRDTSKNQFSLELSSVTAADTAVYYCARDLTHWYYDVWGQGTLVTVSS VL: DIVMTQSPDSLAVSLGERATINCKSSRSVDYYGIGFLNWYQQKPGQPPKLLIYATSKQGSGVPDRFSGSGSGTDFTLTISSLQAEDVAVYYCQQQKEVPPTFGGGTKVEIK
-- reply 8.82

-- ask Please look up its pKd: anti-GPNMB antibody GPN-89 (antibody, V domains shown) VH: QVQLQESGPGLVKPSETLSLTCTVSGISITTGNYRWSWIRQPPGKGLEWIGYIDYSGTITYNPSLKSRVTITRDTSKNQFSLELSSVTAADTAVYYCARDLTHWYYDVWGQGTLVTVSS VL: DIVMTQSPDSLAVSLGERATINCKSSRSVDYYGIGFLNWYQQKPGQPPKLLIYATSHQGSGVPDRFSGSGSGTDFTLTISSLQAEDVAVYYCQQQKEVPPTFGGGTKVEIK
-- reply 9.10
